Test system: DLD-1 colon
PROTOCOL SUMMARY: NCI tumour cell line growth inhibition, 48 h
READOUT LABEL: TGI

CC1(C)C=N[N+]2(C)C3C=CC(CC3)C12 (stereo not drawn) = > 100 µM
COc1ccc2c(c1)CC1c3c(ccc(OC)c3O)CC2N1C (stereo not drawn) = > 100 µM

Now look at this entry.
Query: For CC1=C(Cl)C=CP(=O)(OC(C)C)C1 (stereo not drawn) , what is its reported TGI?
Reply: > 100 µM

###

Tested on: NCI-H522 lung
PROTOCOL SUMMARY: NCI tumour cell line growth inhibition, 48 h
So I've got a bunch of compounds here, and I need their TGI values.
One number for each entry, in µM.

CCN(CC)c1ccc2cc(-c3nnc(-c4ccccc4O)o3)c(=O)oc2c1 = 25.5
N#Cc1c(Cl)nc2ccccc2c1N=[N+]=[N-] = 4.62
Cc1cc(N2CCCC2)nc(NCc2cc(Nc3ccnc4cc(Cl)ccc34)ccc2F)n1 = 3.09

Now look at this entry.
Query: For CN1C=Cc2nccc3cc4c(c1c23)OCO4 , what is its reported TGI?
Reply: 8.2
